src = ChEMBL document CHEMBL1155237

Task for the reader: assign each of the following compounds its reported pIC50.
- testedOn: Mitogen-activated protein kinase 14 (Homo sapiens)
- Sequence (Q16539 whole entry): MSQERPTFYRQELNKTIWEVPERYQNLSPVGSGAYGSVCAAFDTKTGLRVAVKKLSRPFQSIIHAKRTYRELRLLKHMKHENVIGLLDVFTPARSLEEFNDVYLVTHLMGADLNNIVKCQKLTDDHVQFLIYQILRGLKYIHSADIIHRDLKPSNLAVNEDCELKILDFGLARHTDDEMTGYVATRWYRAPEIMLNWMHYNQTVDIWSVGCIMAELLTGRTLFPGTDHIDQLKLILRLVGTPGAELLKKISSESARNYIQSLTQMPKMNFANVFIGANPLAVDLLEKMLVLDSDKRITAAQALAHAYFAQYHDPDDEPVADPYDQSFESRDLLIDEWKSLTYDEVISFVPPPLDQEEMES
- protocolSummary: Inhibition of p38alpha
Would you please state pIC50, meaning minus log10 of the concentration in mol/L, as a bare number?

[in] Endpoint output: pIC50 of CNc1ncc2cc(-c3c(C)ccc4c(Nc5ccc6c(c5)NC(=O)C6(C)C)nccc34)ccc2n1 . Value?
[out] 7.29

[in] Endpoint output: pIC50 of CNc1ncc2cc(-c3c(C)ccc4c(Nc5cc(C(C)(C)C)nn5C)nccc34)ccc2n1 . Value?
[out] 6.96

[in] Endpoint output: pIC50 of CNc1ncc2cc(-c3cc(C(=O)Nc4cccc(C(F)(F)F)c4)ccc3C)ccc2n1 . Value?
[out] 8.46

[in] Endpoint output: pIC50 of CNc1cc(-c2cccnc2Nc2c(C)ccc3c(Nc4ccc5sc(C)nc5c4)nccc23)ncn1 . Value?
[out] 6.46

[in] Endpoint output: pIC50 of C#Cc1cccc(Nc2nccc3c(Nc4ncccc4-c4cc(NC)ncn4)c(C)ccc23)c1 . Value?
[out] 6.35

[in] Endpoint output: pIC50 of Cc1ccc(C(=O)Nc2cccc(C(F)(F)F)c2)cc1Nc1ncccc1-c1ccncn1 . Value?
[out] 7.92
